// provenance: patent US8324226B2

# Tgt: CHK2 (Homo sapiens)
# Construct: made in house
# Sequence (O96017 whole entry): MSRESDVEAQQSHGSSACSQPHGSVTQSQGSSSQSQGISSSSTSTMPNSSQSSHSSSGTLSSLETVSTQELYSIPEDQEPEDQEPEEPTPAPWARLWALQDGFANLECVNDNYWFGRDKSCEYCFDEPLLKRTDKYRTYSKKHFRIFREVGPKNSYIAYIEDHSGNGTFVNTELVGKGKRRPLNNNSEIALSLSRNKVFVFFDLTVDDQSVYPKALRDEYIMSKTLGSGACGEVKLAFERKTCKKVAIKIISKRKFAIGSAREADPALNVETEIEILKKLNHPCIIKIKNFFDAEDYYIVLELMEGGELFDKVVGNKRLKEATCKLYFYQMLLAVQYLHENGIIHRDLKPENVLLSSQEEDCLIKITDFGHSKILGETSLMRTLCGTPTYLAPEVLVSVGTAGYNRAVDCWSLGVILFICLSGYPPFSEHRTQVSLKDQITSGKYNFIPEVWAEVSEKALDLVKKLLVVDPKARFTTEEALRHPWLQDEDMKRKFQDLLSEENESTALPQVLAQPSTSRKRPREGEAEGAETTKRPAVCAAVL
# Assay Procedure: CHK2 kinase activity assay (DELFIA, phosphorylation of a CDC25C peptide)
# Type: biochemical
# Protocol Conditions: first set of tested compounds; ATP 30 μM, CHK2 1 nM; read-out: IC50, inhibition of CHK2 kinase activity in vitro
Quantity Name: IC50

Take a look at these entries with their results.
OCC#Cc1ccc2c(N[C@H]3CCNC3)nc(-c3ccccc3O)nc2c1
< 3 µM
O=C([C@H]1C[C@H](Nc2nc(-c3ccccc3O)nc3ccccc23)CN1)N1CCOCC1
< 3 µM
CN(CCO)C(=O)[C@H]1C[C@H](Nc2nc(-c3ccccc3O)nc3ccccc23)CN1
< 3 µM
CN(c1nc(-c2cc(F)ccc2O)nc2ccccc12)[C@H]1CCNC1
< 3 µM
Oc1ccc(Br)cc1-c1nc(N[C@H]2CCNC2)c2ccccc2n1
< 3 µM

Supply measured IC50 of Oc1ccccc1-c1nc(N[C@H]2CCNC2)c2cc(-c3ccccc3)ccc2n1 in your reply.
3 to 30 µM
